# testName: soluble on expression in E. coli; label from the status in PepcDB or PDB records
measuredProperty: soluble on expression in E. coli

MSLNRPEADREALWKIVHDRCEFGYRRTGAYAPCTFVDEQSGTALYKADFDPYQFLLIPLARITGIEDPALRESAGRNYLYDAWAARFLVTARLNNSLPESDVVLTINPKNARTQDQLHIHISCSSPTTSAALRNVDTSEYVGWKQLPIDLGGRRFQGLAVDTKAFESRNLFRDIYLKVTADGKKMENASIAVANVAQDQFLLLLAEGTEDQPVAAETLQDHDCSITKSEGHHHHHH :: not soluble
MGSDKIHHHHHHMKIAFVSTRGIPNNYGGFEQFAEYISVGMAQRGHEVVVYSPKFHPYQESTYKGVRIKHIYSPETWMGSSVGSFFYDFASLRDALKKEDFDIIYEAGYTSIIPAYIWFNVKKRKRPIFTTNMDGLENKRSKFSPMVRRFLDWEEKMAVKYSHYLIADNMGIHDYYKEKYGKESKFLAYGADIHDDFKAEYLEEFGLKSEEYYILIARLEPENNIVMAIEGYLHSKENGRRPLIVVGKTNTPHGKELVEKYGNERNVEFVGGIYDFKKLDSVRHFSKAYFHGHSVGGTNPSLLEAMAAGCFIFAHDNIFNRAVLKENAFYYPSADKVTEYLNRIDTIAEGSKIQYTARNIEVIRNEYSWESLIDKHEKYFYWLLSQKQ :: not soluble

====

# testName: soluble on expression in E. coli; label from the status in PepcDB or PDB records
measuredProperty: soluble on expression in E. coli

// worked examples, soluble on expression in E. coli included
MGSDKIHHHHHHMFEAFGDMSLDLLRAFEVAARLRSFTAAAIELGTIQPAVSQQIKRLEEQLATRLFDRIYRGIELTEAGEILFSHVQAGLQSIDSGLIAITEQQQHEVLQVATDFAFAAYWLMPRLHRFHKLNPDVDVSLVTSERTHSMLRADIDVTVLFGDGRFKQGESRWLFSEEVFPVCSPLLIADRQTPLPNDALRDFPLLHLRGDSINNWFDWSGVFRALDIPQAPAPGQLRFDNYTLLIQAAIGGQGIAIGWKHLVDDLLDQGLLCRPIAGAAISGHGYYVVLPQRKRRVQIVQQFMDWLASEQALSGVSLAGRPLPSIAV :: not soluble
MESKEERALNNLIVENVNQENDEKDEKEQVANKGEPLALPLNVSEYCVPRGNRRRFRVRQPILQYRWDIMHRLGEPQARMREENMERIGEEVRQLMEKLREKQLSHSLRAVSTDPPHHDHHDEFCLMP :: soluble
MGNGMTKVLPGLYLGNFIDAKDLDQLGRNKITHIISIHESPQPLLQDITYLRIPVADTPEVPIKKHFKECINFIHCCRLNGGNCLVHCFAGISRSTTIVTAYVMTVTGLGWRDVLEAIKATRPIANPNPGFRQQLEEFGWASSQKLRRQLEERFGESPFRDEEELRALLPLCKRCRQGSATSASSAGPHSAASEGTVQRLVPRTPREAHRPLPLLARVKQTFSCLPRCLSRKGGK :: soluble
MPKLILLGDSTLDNFNWVPNKATVTDHLRRQLPKMEILNFAVDGFTTDSILYGEYKDCAVTSSQHTHKYFEPLKALENEQDVEHIVLSVLGNDFRIQLSKLIFMAPEERPKAIEQLINHIIKNYIQVVKEIRKVQPNAKLSIVLQYTPYVENDPYLIYFLMDKLFHHGTVSHGFLSYLQIMYYSIFGLNSKHEQQALNLLHKLMAKVYRNVFNELGDNSLAIIDLASSFDYRNSKLYKAQIEPSDEGGKLIASLITHTITHHDFQNESMLYAKPPLQPNPKILAVPLTKLKKDWFPQQIYVTQEQAITAFKQAYLLQLNKDRQSYLGLYSFFARSNVDFEHATLEKLIVHAQNYSTKKTGYRTLKVMQNLGWLTEQGNIKEESGIVRLLKN :: not soluble
MSMQEMVTISIVTYNSRYIFNVLDQLKAELGTDSIYDIHIYDNHSETAYLEKLTTYEPFITIHRAEENQGFGHGHNQVLFNASTKYAIIFNPDVLVTKDVLDRLLNRIKIDKNIAVVSPKVLNEDGTTQYLVRQKLDVFDYMLRFIPFQFVKKIFDKRLSIYECRDLSDTETTDIKMGSGCFMLIDREKFVEIGGFDERFFMYFEDNDLCLRFGKAGYRILYTPFETVVHMYEKGAHKSRKLFKIFMQSMGKFFNKWGWRFFLEHHHHHH :: soluble

Measured soluble on expression in E. coli, MSLAHFSVLPPEINSLRMYLGAGSAPMLQAAAAWDGLAAELGTAASSFSSVTTGLTGQAWQGPASAAMAAAAAPYAGFLTTASAQAQLAAGQAKAVASVFEAAKAAIVPPAAVAANREAFLALIRSNWLGLNAPWIAAVESLYEEYWAADVAAMTGYHAGASQAAAQLPLPAGLQQFLNTLPNLGIGNQGNANLGGGNTGSGEGHHHHHH : not soluble

For record MSLQDTWGGKMNTLGDRVLLCNDKRSLPAAAVATPFLFESMLFSVCTRGYARLLIDSREIEVKEGELLVVMPRKTIEVIESSCFRAFHLCLDKEILALSAIRISGFISIINKLHSNEPFRPERMEKDFLTATLDLIRNALQNGGRHQEEIVIYLISSLFLFLDDMIADEVEKDCKHTRSETICRDFLLLVSEHHKEQHTVKFYADRLCLSSKHLALTIKTVMGQSASKVINSFIIQQAKSLLRYTDKTVQEIGYELNFSTQSFFGKYFKQHTGMSPGEYRSQEARNRQSEES the listed soluble on expression in E. coli is not soluble

soluble on expression in E. coli measured on VARCQVPDCEADISELKGYHKRHRVCLRCATASFVVLDGENKRYCQQCGKFHLLPDFDEGKRSCRRKLERHNNRRKRKPVDKGGVA = soluble

// recorded soluble on expression in E. coli for MAHHHHHHMRTFSRTARITSSAACVGRFEHQGVSRDAVLARWSLQVVKPNAMKTGGLIGKGMKFASPLGPSGWATRNSGTGSTVLDVNWDLRERMDYYVHYSVPSTWTVVEHVSDNSVAIQSKPPVCDSPGAEGPTVHGFSLNCFAYKQKVKEPDCEKLLSLFLHRFDASVSNSLAVLSKASGRGNGVICGTAKPEQDISEVLANRLECAVAEITFTPAVGEPLAHGLCRAFYNSNRRFHYVVVVAVPEDEFTLSKDLLTHALLAVVESRVEAAPKGT : soluble

soluble on expression in E. coli measured on MGSDKIHHHHHHMTGRQFDIEPLMDEINKSLKQEVNYLTEAQNTDLVKRTLTADHYVVPKVYHDYTTETVLTQSFETGLSVNQWIRSNPSRSDIQNFSQLVIQLMIDEMLLTGVVQTDPNYANFLYRPDSRQLVLLDFGATWTYSTEFRHDIHKLSMALLSGEIDKLMVGIYTRGYLDTRESDETKAQLREVLRMIGDISANLPQPVALQVDVAHDEIRAAAHVMGRGIRHTTLHKDLVLIGRKLTGMLLLLKEINAIVDFNEVRAHISAIKV = not soluble

Reported soluble on expression in E. coli of MAIKITPDEFSLLIQRLNKKWRVFAPSAEFRGGRFSDTDNIIYQRISGWRDLIWHEKSHMSPNTIIAPITETLFYFDKDTIQIAETDTSPIIIFARACDINAMSRLDYMYLSNGNNSDYSYQLLREHIRFVLIECEESFENCFCVSMGTNKTDCYSAAMRFSDEGALVSIRDPFIEAAIQGLGQEADYTPSFVSENRETVVTPDSVCHDPQKIRDILTHHPLWDAYDSRCISCGRCTTGCPTCTCYSVFDVAYDENPQRGERRRQWASCMVPGFSDMAGGHGFREKPGERLRYRALHKVNDYKARNGIEHMCVGCGRCDDRCPQYIKFSLIINKMTAAVRQALAEEA : not soluble

Source of measurements: the DeepSol protein solubility set
